System: Rattus norvegicus
assayOverview: Antiobesity activity in high fat diet-induced obese Sprague-Dawley rat assessed as reduction in body weight at 10 mg/kg, po administered daily for 3 days relative to control
Type: functional
Set-up: scale not given: the % may be the effect or the level left
readout: Activity (%)
Numeric answer only, unit % assumed.

// known answers, use as guide
>>> numericresult("CNC(=O)[C@@H](NC(=O)c1cc2cc(NC(=O)c3ccccc3-c3ccc(C(F)(F)F)cc3)ccc2n1C)c1ccccc1")
106
>>> numericresult("CC(C)Oc1ccc(-c2ccccc2C(=O)Nc2ccc3cc(C(=O)N[C@H](C(=O)N(C)Cc4ccc(F)cc4)c4ccccc4)ccc3n2)cc1")
56
>>> numericresult("CC(C)c1ccc(-c2ccccc2C(=O)Nc2ccc3cc(C(=O)N[C@H](C(=O)N(C)Cc4ccc(F)cc4)c4ccccc4)ccc3n2)cc1")
91

Shift focus to the following entry.
Sample CN(Cc1ccc(F)cc1)C(=O)[C@@H](NC(=O)c1ccc2nc(NC(=O)c3ccccc3-c3ccc(C(F)(F)F)cc3)ccc2c1)c1ccccc1 — what was its Activity?
96

----------
assayOverview: AUC in high fat diet-induced obese Sprague-Dawley rat at 10 mg/kg, po qd for 7 days
Assay type: ADME, organism-based
Design: dose 10 mg/kg, route oral
experimentalParameters: plasma
This section presents compounds with their documented AUC at 168 h values.
The reply should consist of the numeric value with the unit placed after it.

>>> result("CN(Cc1ccccc1)C(=O)[C@@H](NC(=O)c1cc2cc(NC(=O)c3ccccc3-c3ccc(C(F)(F)F)cc3)ccc2n1C)c1ccccc1 [DIRLOTAPIDE]")
"75 ng·h/mL"
>>> result("CN(Cc1ccc(F)cc1)C(=O)[C@@H](NC(=O)c1ccc2nc(NC(=O)c3ccccc3-c3ccc(C(C)(C)C)cc3)ccc2c1)c1ccccc1")
"42 ng·h/mL"

Sample CC(C)Oc1ccc(-c2ccccc2C(=O)Nc2ccc3cc(C(=O)N[C@H](C(=O)N(C)Cc4ccc(F)cc4)c4ccccc4)ccc3n2)cc1 — what was its AUC at 168 h?
51 ng·h/mL
